Assay: Conversion rate of substrate compound A by E. coli expressing each engineered protein (HPLC, oxygenase activity)
Assay type: biochemical
Settings: Reaction condition 2: bacteria cultured overnight, 8 times dose of substrate compound A of condition 1 added, react 3 hours the next day
Documented Conversion rate across a set of molecules
// units = %; emit number, no label

Completed entries (count: 4):
• SEQ ID NO: 102: RdpA mutant L82H + V187L + F182W + G103L + T112A (protein) MHAALSPLSQRFERIAVQPLTGVLGAEITGVDLREPLDDSTWNEILDAFHTYQVIYFPGQAITNEQHIAFSRRFGPVDPVPHLKSIEGYPEVQMIRREANESLRVIGDDWHADSTFLDAPPAAVVMRAIDVPEHGGDTGFLSMYTAWETLSPTMQATIEGLNVVHSATRVFGSLYQAQNRRWSNTSLKVMDVDAGDRETVHPLVVTHPGSGRKGLYVNQVYCQRIEGMTDAESKPLLQFLYEHATRFDFTCRVRWKKDQVLVWDNLCTMHRAVPDYAGKFRYLTRTTVGGVRPAR = 93.2
• SEQ ID NO: 138: RdpA mutant L82H + V187L + F182W + G103L + R180T (protein) MHAALSPLSQRFERIAVQPLTGVLGAEITGVDLREPLDDSTWNEILDAFHTYQVIYFPGQAITNEQHIAFSRRFGPVDPVPHLKSIEGYPEVQMIRREANESLRVIGDDWHTDSTFLDAPPAAVVMRAIDVPEHGGDTGFLSMYTAWETLSPTMQATIEGLNVVHSATRVFGSLYQAQNTRWSNTSLKVMDVDAGDRETVHPLVVTHPGSGRKGLYVNQVYCQRIEGMTDAESKPLLQFLYEHATRFDFTCRVRWKKDQVLVWDNLCTMHRAVPDYAGKFRYLTRTTVGGVRPAR = 54.6
• SEQ ID NO: 98: RdpA mutant L82H + V187L + F182W + G103L + V80T (protein) MHAALSPLSQRFERIAVQPLTGVLGAEITGVDLREPLDDSTWNEILDAFHTYQVIYFPGQAITNEQHIAFSRRFGPVDPTPHLKSIEGYPEVQMIRREANESLRVIGDDWHTDSTFLDAPPAAVVMRAIDVPEHGGDTGFLSMYTAWETLSPTMQATIEGLNVVHSATRVFGSLYQAQNRRWSNTSLKVMDVDAGDRETVHPLVVTHPGSGRKGLYVNQVYCQRIEGMTDAESKPLLQFLYEHATRFDFTCRVRWKKDQVLVWDNLCTMHRAVPDYAGKFRYLTRTTVGGVRPAR = 81
• SEQ ID NO: 126: RdpA mutant L82H + V187L + F182W + R104G + T112S + R180K (protein) MHAALSPLSQRFERIAVQPLTGVLGAEITGVDLREPLDDSTWNEILDAFHTYQVIYFPGQAITNEQHIAFSRRFGPVDPVPHLKSIEGYPEVQMIRREANESGGVIGDDWHSDSTFLDAPPAAVVMRAIDVPEHGGDTGFLSMYTAWETLSPTMQATIEGLNVVHSATRVFGSLYQAQNKRWSNTSLKVMDVDAGDRETVHPLVVTHPGSGRKGLYVNQVYCQRIEGMTDAESKPLLQFLYEHATRFDFTCRVRWKKDQVLVWDNLCTMHRAVPDYAGKFRYLTRTTVGGVRPAR = 92.6

Query SEQ ID NO: 90 (protein) MHAALSPLSQRFERIAVQPLTGVLGAEITGVDLREPLDDSTWNEILDAFHTYQVIYFPGQAITNEQHIAFSRRFGPVDPVPHLKSIEGYPEVQMIRREANESLRVIGDDWHTDSTFLDAPPAAVVMRAIDVPEHGGDTGFLSMYTAWETLSPTMQATIEGLNVVHSATRVFGSLYQAQNLRWSNTSLKVMDVDAGDRETVHPLVVTHPGSGRKGLYVNQVYCQRIEGMTDAESKPLLQFLYEHATRFDFTCRVRWKKDQVLVWDNLCTMHRAVPDYAGKFRYLTRTTVGGVRPAR yields Conversion rate of 57.5
